Biological target: p.Arg334Trp-CFTR (Homo sapiens, UniProt P13569, R334W)
Sequence (P13569 whole entry R334W): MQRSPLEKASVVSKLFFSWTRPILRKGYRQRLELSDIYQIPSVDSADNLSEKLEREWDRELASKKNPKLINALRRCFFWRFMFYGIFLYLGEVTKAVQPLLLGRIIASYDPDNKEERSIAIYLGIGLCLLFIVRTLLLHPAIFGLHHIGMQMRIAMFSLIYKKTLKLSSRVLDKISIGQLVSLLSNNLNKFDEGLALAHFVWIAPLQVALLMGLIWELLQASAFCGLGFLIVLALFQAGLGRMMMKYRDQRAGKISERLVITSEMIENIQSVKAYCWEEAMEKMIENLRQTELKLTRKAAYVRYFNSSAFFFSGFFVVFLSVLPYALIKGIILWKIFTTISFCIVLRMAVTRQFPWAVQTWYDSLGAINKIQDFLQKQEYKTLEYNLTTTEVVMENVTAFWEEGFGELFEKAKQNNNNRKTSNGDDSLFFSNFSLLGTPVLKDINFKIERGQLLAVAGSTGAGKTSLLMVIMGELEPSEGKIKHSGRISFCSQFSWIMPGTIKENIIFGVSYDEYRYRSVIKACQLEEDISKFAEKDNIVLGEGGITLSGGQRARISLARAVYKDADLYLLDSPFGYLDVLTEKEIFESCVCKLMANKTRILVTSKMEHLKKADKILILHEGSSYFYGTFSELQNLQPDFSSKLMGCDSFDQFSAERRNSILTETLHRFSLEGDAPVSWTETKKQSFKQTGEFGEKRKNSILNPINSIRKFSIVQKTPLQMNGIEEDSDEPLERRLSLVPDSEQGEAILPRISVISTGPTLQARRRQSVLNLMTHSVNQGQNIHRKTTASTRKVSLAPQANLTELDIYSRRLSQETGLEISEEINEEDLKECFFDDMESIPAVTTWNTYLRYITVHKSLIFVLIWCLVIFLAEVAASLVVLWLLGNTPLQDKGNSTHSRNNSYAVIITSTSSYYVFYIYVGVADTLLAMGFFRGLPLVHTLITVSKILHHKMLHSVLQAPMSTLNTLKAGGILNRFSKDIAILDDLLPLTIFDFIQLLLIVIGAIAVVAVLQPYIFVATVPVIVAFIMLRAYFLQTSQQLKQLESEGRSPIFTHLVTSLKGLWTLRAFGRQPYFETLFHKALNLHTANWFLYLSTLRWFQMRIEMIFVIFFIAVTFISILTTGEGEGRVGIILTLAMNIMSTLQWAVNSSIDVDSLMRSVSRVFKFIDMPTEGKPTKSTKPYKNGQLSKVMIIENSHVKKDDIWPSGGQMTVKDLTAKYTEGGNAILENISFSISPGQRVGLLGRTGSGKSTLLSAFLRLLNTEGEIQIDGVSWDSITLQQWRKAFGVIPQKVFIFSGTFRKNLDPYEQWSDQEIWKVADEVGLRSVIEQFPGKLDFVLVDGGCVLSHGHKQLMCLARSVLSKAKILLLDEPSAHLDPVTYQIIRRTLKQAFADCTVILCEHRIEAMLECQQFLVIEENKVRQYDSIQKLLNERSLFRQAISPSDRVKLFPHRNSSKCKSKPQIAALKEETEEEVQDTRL
Assay: HS-YFP assay on a plate reader (CFTR-mediated I- influx), CFBE41o- cells co-expressing HS-YFP and p.Arg334Trp-CFTR
Details: CFBE41o- cells, with Fsk, concentrations 0.16–30 μM; read-out: EC50 (potentiation of p.Arg334Trp-CFTR activity)
// pEC50 lookup, one value per entry
Value format note: pEC50 is -log10 of concentration (mol/L); just state the number.

Illustrative cases are given below, each with its answer.
COc1ccc(-n2cc(C(O)c3ccc(Br)cc3)nn2)cc1 (centres unmarked) [LSO-151]; 5.74
OC(c1ccc(Br)cc1)c1cn(-c2ccc(I)cc2)nn1 (centres unmarked) [LSO-154]; 5.68
Cc1ccc(-n2cc(C(O)c3ccc(Br)cc3)nn2)cc1 (centres unmarked) [LSO-153]; 5.90
CCOC(=O)c1ccc(-n2cc(C(O)c3ccc(Br)cc3)nn2)cc1 (centres unmarked) [LSO-150]; 6.00

Then there is this compound:
Report its pEC50 with p.Arg334Trp-CFTR (Homo sapiens, UniProt P13569, R334W) as the test system: COC(=O)c1ccc(-n2cc(C(O)c3ccc(Br)cc3)nn2)cc1 (centres unmarked) [LSO-149] 5.84
